These entries and their values trace back to ChEMBL document CHEMBL3507680.

EXPERIMENT_DESCRIPTION: Human HepG2 cell viability assay in 384 well format
Format: toxicity, cell-based
Design: dose 125 nL, time 70.5 hour; concentration not given beside the values
ASSAY_SETUP: HepG2 cells, read-out: Inhibition
Provide the recorded cytotoxicity at 70.5 h for the entries that follow.
Numbers only here, please. The scale is %.

In: What cytotoxicity at 70.5 h value was documented for this molecule, CCOc1ccccc1-c1noc(CN(C)Cc2cnn(C)c2)n1 ?
Out: 2

In: What cytotoxicity at 70.5 h value was documented for this molecule, O=C(NCCN1CCCC1)c1cc2c(s1)CCN2c1ncccn1 ?
Out: -5.02

In: What cytotoxicity at 70.5 h value was documented for this molecule, Cc1ncc(CN2CCc3nc4cc(C(C)(C)C)nn4c(O)c3C2)n1C ?
Out: 7.3

In: What cytotoxicity at 70.5 h value was documented for this molecule, CS(=O)(=O)NC1CCN(c2cccc(F)c2C#N)CC1 ?
Out: -16.5

In: What cytotoxicity at 70.5 h value was documented for this molecule, CCN1CCC(c2cncc(N(C)C)n2)CC1 ?
Out: 1.63

In: What cytotoxicity at 70.5 h value was documented for this molecule, CN(Cc1cccc(C#N)c1)Cc1nc2c(cnn2C)c(=O)[nH]1 ?
Out: -19

In: What cytotoxicity at 70.5 h value was documented for this molecule, c1ccc(-c2ccc(C3CNCCO3)nc2)cc1 (stereo unspecified) ?
Out: -19.9

In: What cytotoxicity at 70.5 h value was documented for this molecule, COCC(=O)N1C[C@@H](c2cccc(OC)c2)[C@@]2(CCCCC(=O)N2)C1 ?
Out: -10.3

In: What cytotoxicity at 70.5 h value was documented for this molecule, CC(C)CN(Cc1ccc(C(F)(F)F)nc1)Cc1cnn(C)c1 ?
Out: -3.14

In: What cytotoxicity at 70.5 h value was documented for this molecule, COc1cccc(CNC(=O)Cn2ccc3c(C)nn(C)c3c2=O)c1 ?
Out: -5.8

In: What cytotoxicity at 70.5 h value was documented for this molecule, CCCn1nnnc1COC(=O)C1Cc2cc(Cl)ccc2O1 (stereo unspecified) ?
Out: -9.18

In: What cytotoxicity at 70.5 h value was documented for this molecule, Cc1nnc2n1CCN(Cc1csc(-c3ncccn3)n1)C2 ?
Out: 39.4

In: What cytotoxicity at 70.5 h value was documented for this molecule, c1cc(C[C@H]2[C@H](N3CCOCC3)CCN2Cc2ccoc2)ccn1 ?
Out: -11.4

In: What cytotoxicity at 70.5 h value was documented for this molecule, CN(C)C(=O)NCC1CC2(CO1)CN(c1nncs1)C2 (stereo unspecified) ?
Out: 1.71

In: What cytotoxicity at 70.5 h value was documented for this molecule, CC(C)=CCN1C(=O)[C@H]2CC[C@@H]1CN(C(=O)CCc1nc(Cl)n[nH]1)C2 ?
Out: -14.8

In: What cytotoxicity at 70.5 h value was documented for this molecule, CC1=N[C@@]2(CC[C@@H]3CN(S(=O)(=O)N(C)C)C[C@@H]32)C(=O)N1CC(C)C ?
Out: -7.17

In: What cytotoxicity at 70.5 h value was documented for this molecule, CCOC(=O)N1CCN(Cc2ccc(OCc3nccn3C)cc2)CC1 ?
Out: 1.77

In: What cytotoxicity at 70.5 h value was documented for this molecule, Cc1ccccc1C(=O)N1CC[C@@H](N2CCC(O)CC2)[C@H](O)C1 ?
Out: -1.6

In: What cytotoxicity at 70.5 h value was documented for this molecule, CC(Oc1cc(Cl)cc(Cl)c1)C(=O)NCCS(N)(=O)=O (stereo unspecified) ?
Out: -4

In: What cytotoxicity at 70.5 h value was documented for this molecule, COC(=O)c1ccc(NC(C)c2ccc3c(c2)CCC(=O)N3)nn1 (stereo unspecified) ?
Out: -8.66

In: What cytotoxicity at 70.5 h value was documented for this molecule, CCn1c(CN(C)C)nnc1C1CCN(c2nccc(NC)n2)CC1 ?
Out: -2.22

In: What cytotoxicity at 70.5 h value was documented for this molecule, COc1ccc(CN2CC[C@@H]3[C@H]2CCC(=O)N3c2cnn(C)c2)cc1 ?
Out: 5.08

In: What cytotoxicity at 70.5 h value was documented for this molecule, CN(C)CCO[C@@H]1CC[C@H]2[C@H]1OCCN2C(=O)c1ccccc1F ?
Out: -10.8

In: What cytotoxicity at 70.5 h value was documented for this molecule, CCn1c(CN2CCCC(O)(c3ccc(F)cc3)CC2)cnc1SC (stereo unspecified) ?
Out: -5.35

In: What cytotoxicity at 70.5 h value was documented for this molecule, CC1(C)CCC(CC(=O)O)c2ccccc21 (stereo unspecified) ?
Out: -3.28

In: What cytotoxicity at 70.5 h value was documented for this molecule, CCNC(=O)c1cccc(CNC(=O)c2cnc(C(C)(C)C)s2)c1 ?
Out: 2.86

In: What cytotoxicity at 70.5 h value was documented for this molecule, O=C(NCc1ccc(OCC2CC2)nc1)Nc1c(F)cccc1F ?
Out: -2.96

In: What cytotoxicity at 70.5 h value was documented for this molecule, O=C1[C@H]2CN(S(=O)(=O)C3CC3)C[C@H]2CN1CC1CC1 ?
Out: 0.281

In: What cytotoxicity at 70.5 h value was documented for this molecule, Cc1ccc(CC(=O)N2CCCC(c3ccn[nH]3)C2)cn1 (stereo unspecified) ?
Out: 0.114

In: What cytotoxicity at 70.5 h value was documented for this molecule, Cc1n[nH]cc1CNCc1cccc(OCC(F)(F)F)c1 ?
Out: -0.995

In: What cytotoxicity at 70.5 h value was documented for this molecule, Cc1cccc(CN2C(=O)CC[C@H]3[C@@H]2CCN3CC(=O)N(C)C)n1 ?
Out: -7.14

In: What cytotoxicity at 70.5 h value was documented for this molecule, Cn1cc(N2CC3(CCN(C(=O)c4cccn4C)CC3)OCC2=O)cn1 ?
Out: -12.8

In: What cytotoxicity at 70.5 h value was documented for this molecule, CC(C)(C)c1ncc(CNc2ccccc2Cn2cncn2)s1 ?
Out: -8.54

In: What cytotoxicity at 70.5 h value was documented for this molecule, CN(C)S(=O)(=O)N1C[C@@H]2CN(Cc3ccoc3)CCO[C@@H]2C1 ?
Out: -4.48

In: What cytotoxicity at 70.5 h value was documented for this molecule, Cc1nn(CC(C)C)c(N(C)C)c1CNCc1ccccc1CO ?
Out: -0.0473

In: What cytotoxicity at 70.5 h value was documented for this molecule, Cc1ccc(-c2nc(CN3CCCC3Cn3cncn3)co2)cc1 (stereo unspecified) ?
Out: 1.81

In: What cytotoxicity at 70.5 h value was documented for this molecule, Cc1cc(N2CCN(Cc3cn(C)nc3C)CC2)cc(C2CCCN2)n1 (stereo unspecified) ?
Out: -1.66

In: What cytotoxicity at 70.5 h value was documented for this molecule, CCn1c(C)nnc1SCCNC(=O)c1sc(C(C)C)nc1C ?
Out: -7.2

In: What cytotoxicity at 70.5 h value was documented for this molecule, COCc1nc2n(n1)CCCC2Nc1nc(C)ns1 (stereo unspecified) ?
Out: 24.4

In: What cytotoxicity at 70.5 h value was documented for this molecule, CC(CC(=O)NS(C)(=O)=O)C1CCCCC1 (stereo unspecified) ?
Out: -13.9

In: What cytotoxicity at 70.5 h value was documented for this molecule, CCOc1cc([C@@H]2N[C@H](c3nccs3)Cc3ccsc32)ccc1OC ?
Out: -3

In: What cytotoxicity at 70.5 h value was documented for this molecule, Cc1nc(C)c(CN2CCC(N(C)Cc3nnc(C4CC4)o3)C2)s1 (stereo unspecified) ?
Out: -12.3

In: What cytotoxicity at 70.5 h value was documented for this molecule, CNC(=O)c1sc2ncccc2c1C1CCN(C(=O)CCOC)C1 (stereo unspecified) ?
Out: -8.16

In: What cytotoxicity at 70.5 h value was documented for this molecule, CCc1n[nH]c(C2CN(Cc3nnc(C4CCC4)o3)CCO2)n1 (stereo unspecified) ?
Out: -7.61

In: What cytotoxicity at 70.5 h value was documented for this molecule, CCC[C@H]1CN(S(=O)(=O)c2c(C)noc2C)C[C@@H]1N ?
Out: -3.53

In: What cytotoxicity at 70.5 h value was documented for this molecule, Cn1nnn(-c2ccc(NS(=O)(=O)c3ccc(Br)cc3)cc2)c1=O ?
Out: -2.26
